target: BRM (Homo sapiens); construct: made in house; host or cells: High Five insect cells; assay: ATPase catalytic activity of BRM, ADP-Glo in vitro biochemical assay; conditions: ATPase catalytic activity, 30 nM BRM, 400 μM ATP, read-out: BRM IP50 (μM)*
Recorded Endpoint: IC50

Prompt line: // IC50 lookup, key: CN(C)CCC(NC(=O)c1ccn(S(C)(=O)=O)c1)C(=O)Nc1nc(-c2cccc(-c3ccncc3)c2)cs1 (stereo not drawn)
Response line: > 0.01 µM

----------
molecular target: BRG-1 (Homo sapiens, UniProt P51532); construct: made in house; host or cells: High Five insect cells; assay: ATPase catalytic activity of BRG-1, ADP-Glo in vitro biochemical assay; settings: ATPase catalytic activity, 30 nM BRG-1, 400 μM ATP, read-out: BRG1 IP50 (μM)*
Sequence (P51532 whole entry): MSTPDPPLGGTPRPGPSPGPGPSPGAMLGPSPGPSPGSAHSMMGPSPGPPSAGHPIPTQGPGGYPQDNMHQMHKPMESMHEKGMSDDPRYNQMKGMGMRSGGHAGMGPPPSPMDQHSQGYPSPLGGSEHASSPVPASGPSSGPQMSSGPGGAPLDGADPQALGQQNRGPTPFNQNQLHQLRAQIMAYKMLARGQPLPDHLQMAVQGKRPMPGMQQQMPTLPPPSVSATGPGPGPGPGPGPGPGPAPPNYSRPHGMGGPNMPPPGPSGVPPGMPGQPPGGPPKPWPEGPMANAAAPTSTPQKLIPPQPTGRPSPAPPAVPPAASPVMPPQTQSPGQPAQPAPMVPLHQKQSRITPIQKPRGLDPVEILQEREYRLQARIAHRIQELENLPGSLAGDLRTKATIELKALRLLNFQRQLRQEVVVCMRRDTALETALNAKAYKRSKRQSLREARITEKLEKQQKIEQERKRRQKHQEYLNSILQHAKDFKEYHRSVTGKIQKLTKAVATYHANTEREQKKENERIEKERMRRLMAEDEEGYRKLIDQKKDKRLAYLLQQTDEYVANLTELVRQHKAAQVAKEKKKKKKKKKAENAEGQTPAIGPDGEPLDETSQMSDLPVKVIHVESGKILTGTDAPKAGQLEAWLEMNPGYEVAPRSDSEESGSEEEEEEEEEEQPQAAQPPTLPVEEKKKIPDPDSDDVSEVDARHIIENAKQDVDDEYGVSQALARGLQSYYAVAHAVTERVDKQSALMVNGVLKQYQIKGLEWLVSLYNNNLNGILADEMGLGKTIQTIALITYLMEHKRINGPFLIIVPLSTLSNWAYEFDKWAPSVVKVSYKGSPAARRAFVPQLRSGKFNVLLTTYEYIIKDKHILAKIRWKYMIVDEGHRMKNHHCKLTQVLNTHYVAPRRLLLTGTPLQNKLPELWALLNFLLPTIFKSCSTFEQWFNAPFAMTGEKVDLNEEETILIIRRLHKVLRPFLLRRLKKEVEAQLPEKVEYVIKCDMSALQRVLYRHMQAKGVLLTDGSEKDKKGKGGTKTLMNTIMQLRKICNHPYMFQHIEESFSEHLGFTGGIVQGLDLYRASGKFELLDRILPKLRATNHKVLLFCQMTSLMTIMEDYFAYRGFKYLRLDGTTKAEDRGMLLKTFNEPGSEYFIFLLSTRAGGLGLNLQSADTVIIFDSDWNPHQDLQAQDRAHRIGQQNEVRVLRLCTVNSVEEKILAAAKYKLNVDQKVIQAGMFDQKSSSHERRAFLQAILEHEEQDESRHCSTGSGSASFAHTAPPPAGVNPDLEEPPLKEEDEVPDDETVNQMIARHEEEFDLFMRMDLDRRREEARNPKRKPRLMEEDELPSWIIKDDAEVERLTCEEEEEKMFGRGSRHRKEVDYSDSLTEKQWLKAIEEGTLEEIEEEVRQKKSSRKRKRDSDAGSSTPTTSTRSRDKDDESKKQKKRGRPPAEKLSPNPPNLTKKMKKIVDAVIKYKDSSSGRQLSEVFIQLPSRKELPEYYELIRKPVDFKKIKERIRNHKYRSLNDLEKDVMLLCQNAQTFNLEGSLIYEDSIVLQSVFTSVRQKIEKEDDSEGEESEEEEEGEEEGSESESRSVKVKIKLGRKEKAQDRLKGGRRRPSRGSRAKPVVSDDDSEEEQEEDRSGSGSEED
Recorded Endpoint: IC50

Solved entries:
Smiles Structure | Test System | Value Reported
CS(=O)(=O)n1ccc(C(=O)NCC(=O)Nc2nc(-c3cccc(OC4CCC4)c3)cs2)c1 | BRG-1 (Homo sapiens, UniProt P51532) | > 0.01 µM
CO[C@@H]1CN(c2cccc(-c3csc(NC(=O)CNC(=O)c4ccn(S(C)(=O)=O)c4)n3)c2)C[C@H]1F | BRG-1 (Homo sapiens, UniProt P51532) | > 0.01 µM

Shift focus to the following entry.
Prompt line: What value of IC50 has been reported for the following molecule? CC1(n2ccc(C(=O)NCC(=O)Nc3nc(-c4cccc(N5CCC(O)CC5)n4)cs3)c2)COC1
Response line: > 0.01 µM

----------
molecular target: BRM (Homo sapiens, UniProt P51531); construct: made in house; host or cells: High Five insect cells; experiment: ATPase catalytic activity of BRM, ADP-Glo in vitro biochemical assay; conditions: ATPase catalytic activity, 30 nM BRM, 400 μM ATP, read-out: BRM IP50 (μM)*
Sequence (P51531 whole entry): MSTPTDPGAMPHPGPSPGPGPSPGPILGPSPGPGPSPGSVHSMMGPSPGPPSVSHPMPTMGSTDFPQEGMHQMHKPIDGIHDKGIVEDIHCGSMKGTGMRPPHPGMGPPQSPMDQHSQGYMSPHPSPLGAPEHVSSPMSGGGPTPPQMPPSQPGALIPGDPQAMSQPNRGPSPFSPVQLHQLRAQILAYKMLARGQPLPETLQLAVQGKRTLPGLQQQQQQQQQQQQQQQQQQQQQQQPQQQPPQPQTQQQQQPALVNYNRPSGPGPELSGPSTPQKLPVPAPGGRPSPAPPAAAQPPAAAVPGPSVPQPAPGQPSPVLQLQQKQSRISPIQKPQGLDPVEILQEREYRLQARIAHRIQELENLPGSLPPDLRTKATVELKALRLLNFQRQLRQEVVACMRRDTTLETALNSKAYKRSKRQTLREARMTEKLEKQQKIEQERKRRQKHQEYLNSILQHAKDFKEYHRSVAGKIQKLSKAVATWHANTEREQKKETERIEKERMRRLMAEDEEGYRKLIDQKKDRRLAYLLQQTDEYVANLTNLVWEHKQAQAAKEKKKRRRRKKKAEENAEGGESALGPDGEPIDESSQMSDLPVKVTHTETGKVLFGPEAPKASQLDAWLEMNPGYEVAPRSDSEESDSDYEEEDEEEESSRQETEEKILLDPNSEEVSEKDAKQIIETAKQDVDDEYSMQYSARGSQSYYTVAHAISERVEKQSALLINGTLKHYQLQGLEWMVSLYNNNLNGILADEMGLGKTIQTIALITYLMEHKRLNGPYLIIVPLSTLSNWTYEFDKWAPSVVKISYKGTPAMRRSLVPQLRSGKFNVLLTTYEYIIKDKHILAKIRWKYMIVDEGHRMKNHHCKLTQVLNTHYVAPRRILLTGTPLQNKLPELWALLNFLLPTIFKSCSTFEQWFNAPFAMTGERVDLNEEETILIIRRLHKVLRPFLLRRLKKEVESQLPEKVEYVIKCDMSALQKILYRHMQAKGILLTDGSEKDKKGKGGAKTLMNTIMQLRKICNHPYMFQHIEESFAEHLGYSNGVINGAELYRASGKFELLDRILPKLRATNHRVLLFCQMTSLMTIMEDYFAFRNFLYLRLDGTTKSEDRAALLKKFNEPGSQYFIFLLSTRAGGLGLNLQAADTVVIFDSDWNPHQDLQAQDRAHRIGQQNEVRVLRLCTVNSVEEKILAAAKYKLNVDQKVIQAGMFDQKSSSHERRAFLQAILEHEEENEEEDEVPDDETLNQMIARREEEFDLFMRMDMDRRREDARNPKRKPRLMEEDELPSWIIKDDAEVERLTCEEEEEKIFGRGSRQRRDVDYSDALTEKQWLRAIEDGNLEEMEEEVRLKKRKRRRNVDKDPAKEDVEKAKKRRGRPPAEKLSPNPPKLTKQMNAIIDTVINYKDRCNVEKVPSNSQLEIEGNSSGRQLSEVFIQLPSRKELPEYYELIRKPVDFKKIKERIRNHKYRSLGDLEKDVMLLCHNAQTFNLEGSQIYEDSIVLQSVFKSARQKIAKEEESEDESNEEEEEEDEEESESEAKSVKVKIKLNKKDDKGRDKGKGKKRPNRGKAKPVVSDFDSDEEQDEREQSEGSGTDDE
Below, each of the compounds is paired with its reported IC50 value.

Smiles Structure | IC50
CS(=O)(=O)n1ccc(C(=O)NCC(=O)Nc2nc(-c3cccc(OCC4CCC4)c3)cs2)c1 | > 0.01 µM
C[C@@H]1CCCN(c2cccc(-c3csc(NC(=O)CNC(=O)c4ccn(S(C)(=O)=O)c4)n3)n2)C1 | > 0.01 µM

Prompt line: Please tell me: IC50 of CS(=O)(=O)n1ccc(C(=O)NCC(=O)Nc2nc(-c3cccc(N4CCC(F)(F)CC4)c3)cs2)c1 , system BRM (Homo sapiens, UniProt P51531)?
Response line: > 0.01 µM

Prompt line: Please state recorded IC50 (tested on BRM (Homo sapiens, UniProt P51531)) of C[C@@H]1CN(c2cccc(-c3csc(NC(=O)CNC(=O)c4ccn(C5(C)COC5)c4)n3)c2)C[C@H](C)O1
Response line: > 0.01 µM

Prompt line: # get_value(readout= IC50, system= BRM (Homo sapiens, UniProt P51531)) for COC[C@H](NC(=O)c1ccn(S(C)(=O)=O)c1)C(=O)Nc1nc(-c2cccc(-c3ccnc(C(F)F)c3)c2)cs1
Response line: < 0.01 µM

----------
Quick reference for IC50 among some molecules
biological target: BRM (Homo sapiens); construct: made in house; host or cells: High Five insect cells; assay: ATPase catalytic activity of BRM, ADP-Glo in vitro biochemical assay; settings: ATPase catalytic activity, 30 nM BRM, 400 μM ATP, read-out: BRM IP50 (μM)*

Please review the following examples before continuing.
Molecule | Test System | Recorded Endpoint | Value Reported
CC(C)(CN)n1ccc(C(=O)NCC(=O)Nc2nc(-c3cccc(-c4ccncc4)c3)cs2)c1 [Compound 42] | BRM (Homo sapiens) | IC50 | > 0.01 µM
CS(=O)(=O)n1ccc(C(=O)NCC(=O)Nc2nc(-c3cccc(C(=O)Nc4ccncc4)c3)cs2)c1 [Compound 117] | BRM (Homo sapiens) | IC50 | > 0.01 µM
CN1CCCc2ccc(-c3csc(NC(=O)CNC(=O)c4ccn(S(C)(=O)=O)c4)n3)cc21 [Compound 306] | BRM (Homo sapiens) | IC50 | > 0.01 µM

Prompt line: # get_value(readout='IC50', item= Cc1nccc(-c2cccc(-c3csc(NC(=O)CNC(=O)c4ccn(C(C)(C)C)c4)n3)c2)n1 [Compound 23] )
Response line: < 0.01 µM

Prompt line: I am curious: what IC50 value has been reported for CS(=O)(=O)n1ccc(C(=O)NCC(=O)Nc2nc(-c3cccc(C4CCN(CC(F)(F)F)CC4)c3)cs2)c1 [Compound 114] ?
Response line: > 0.1 µM

Prompt line: Which IC50 value is on record for CS(=O)(=O)n1cc(C(=O)NCC(=O)Nc2nc(-c3cccc(-c4ccncc4)c3)cs2)cn1 [Compound 44] ?
Response line: > 0.01 µM

----------
biological target: BRG-1 (Homo sapiens, UniProt P51532); construct: made in house; host or cells: High Five insect cells; assay: ATPase catalytic activity of BRG-1, ADP-Glo in vitro biochemical assay; conditions: ATPase catalytic activity, 30 nM BRG-1, 400 μM ATP, read-out: BRG1 IP50 (μM)*
Recorded Endpoint: IC50

Worked cases, answers included:
Smiles Structure | IC50
CO[C@@H]1CCCN(c2cccc(-c3csc(NC(=O)CNC(=O)c4ccn(C(C)(C)C)c4)n3)n2)C1 | > 0.01 µM
C[C@@H]1CN(c2cccc(-c3csc(NC(=O)CNC(=O)c4ccn(C5(C)COC5)c4)n3)c2)C[C@H](C)O1 | > 0.01 µM
NCCS(=O)(=O)n1ccc(C(=O)NCC(=O)Nc2nc(-c3cccc(-c4ccncc4)c3)cs2)c1 | > 0.01 µM
Cn1ncc(-c2cccc(-c3csc(NC(=O)CNC(=O)c4ccn(S(C)(=O)=O)c4)n3)c2)n1 | < 0.01 µM
C[C@]1(O)CCCN(c2cccc(-c3csc(NC(=O)CNC(=O)c4ccn(S(C)(=O)=O)c4)n3)c2)C1 | > 0.01 µM

Prompt line: Item CS(=O)(=O)n1ccc(C(=O)NCC(=O)Nc2nc(-c3cccc(N4CC(N5CCOCC5)C4)c3)cs2)c1 has what recorded IC50?
Response line: > 0.01 µM

Prompt line: Data request, read-out IC50, for C[C@@H]1CN(c2cccc(-c3csc(NC(=O)CNC(=O)c4ccn(C5(C#N)CC5)c4)n3)c2)C[C@H](C)O1
Response line: > 0.01 µM

Prompt line: Entry COC[C@H](NC(=O)c1ccn(S(C)(=O)=O)c1)C(=O)Nc1nc(-c2cc(F)c(F)c(N3C[C@@H](C)O[C@@H](C)C3)c2)cs1 : reported IC50 = ?
Response line: < 0.01 µM

Prompt line: So what does the record say about IC50 for Cn1ccc(OCc2cccc(-c3csc(NC(=O)CNC(=O)c4ccn(C(C)(C)C)c4)n3)c2)n1 ?
Response line: > 0.1 µM

Prompt line: // query IC50 value for entry COC1CCN(c2cccc(-c3csc(NC(=O)CNC(=O)c4ccn(S(C)(=O)=O)c4)n3)c2)CC1
Response line: > 0.01 µM

Prompt line: Please look up its IC50: COCCOC1CN(c2cccc(-c3csc(NC(=O)CNC(=O)c4ccn(S(C)(=O)=O)c4)n3)c2)C1
Response line: > 0.01 µM

----------
Measured pIC50 values are reported for all entries that follow.
biological target: BRG-1 (Homo sapiens); construct: made in house; host or cells: High Five insect cells; assay: ATPase catalytic activity of BRG-1, ADP-Glo in vitro biochemical assay; details: ATPase catalytic activity, 30 nM BRG-1, 400 μM ATP, read-out: BRG1 IP50
pIC50: −log10 of the molar value.

# example entries with known answers
Molecule | pIC50
CC(C)(C)n1ccc(C(=O)NCC(=O)Nc2nc(-c3cccc(N4CCC5(CCOCC5)C4)n3)cs2)c1 [Compound 624] | < 7.00
CN1CCc2c(F)ccc(-c3csc(NC(=O)CNC(=O)c4ccn(S(C)(=O)=O)c4)n3)c21 [Compound 565] | < 8.00
CC(C)(C)n1ccc(C(=O)NCC(=O)Nc2nc(-c3cccc(N4CCC5(COC5)C4)n3)cs2)c1 [Compound 620] | < 8.00
CC(C)(F)COc1cccc(-c2csc(NC(=O)CNC(=O)c3ccn(C4(C#N)CC4)c3)n2)n1 [Compound 498] | < 7.00
COC(=O)N1CCC[C@H](c2csc(NC(=O)CNC(=O)c3ccn(S(C)(=O)=O)c3)n2)C1 [Compound 579] | < 7.00
COC[C@H](NC(=O)c1ccn(C(C)(C)C)c1)C(=O)Nc1nc(-c2ccc3c(F)cn(C)c(=O)c3c2)cs1 [Compound 561] | > 8.00

Prompt line: Consider the molecule CC(C)(C)n1ccc(C(=O)NCC(=O)Nc2nc(-c3cccc(N4CCCC(n5cncn5)C4)n3)cs2)c1 (stereo not drawn) [Compound 709] and give its measured pIC50.
Response line: < 8.00

Prompt line: Entry CC1COc2ccc(-c3csc(NC(=O)CNC(=O)c4ccn(S(C)(=O)=O)c4)n3)cc2N1C (stereo not drawn) [Compound 478] has what pIC50?
Response line: < 8.00

Prompt line: Which measured pIC50 value corresponds to COC[C@H](NC(=O)c1ccn(S(C)(=O)=O)c1)C(=O)Nc1nc(-c2cncc(N3C[C@@H](C)O[C@@H](C)C3)n2)cs1 [Compound 707] ?
Response line: < 8.00

Prompt line: # input molecule: CC(C)N1CCc2ccc(-c3csc(NC(=O)CNC(=O)c4ccn(S(C)(=O)=O)c4)n3)cc21 [Compound 469] ; wanted: its pIC50
Response line: < 7.00

Prompt line: For CC(C)(C)n1ccc(C(=O)NCC(=O)Nc2nc(-c3cccc(N4CCCC(N5CCCC5)C4)n3)cs2)c1 (stereo not drawn) [Compound 636] , what is its reported pIC50?
Response line: < 8.00

Prompt line: pIC50 lookup needed for CC(C)(F)COc1cccc(-c2csc(NC(=O)CNC(=O)c3ccn(C4(C)COC4)c3)n2)c1 [Compound 484] , thanks.
Response line: < 7.00

Prompt line: # get_value(readout='pIC50', item= N#CC1(n2ccc(C(=O)NCC(=O)Nc3nc(-c4cccc(OC5CC5)n4)cs3)c2)CC1 [Compound 559] )
Response line: < 7.00

Prompt line: What does the record list as pIC50 for Cn1ccc2ccc(-c3csc(NC(=O)CNC(=O)c4ccn(C5(C#N)CC5)c4)n3)cc2c1=O [Compound 475] ?
Response line: > 8.00

Prompt line: Can you look up the measured pIC50 of CS(=O)(=O)n1ccc(C(=O)NCC(=O)Nc2nc(-c3cccc([C@H]4CC4(F)F)c3)cs2)c1 [Compound 576] for me?
Response line: < 8.00
